Data provenance: patent US7951964B2

- method-summary: Solubility in the fluorine-containing organic solvent 1,3-bis(trifluoromethyl)benzene (maximum amount giving a homogeneous solution, judged visually)
- condition-summary: 10 ml of 1,3-bis(trifluoromethyl)benzene, 25° C., stirred, visually measured
Property: solubility in 1,3-bis(trifluoromethyl)benzene; scope: individual molecules
measurement-label: solubility in 1,3-bis(trifluoromethyl)benzene (g/10 ml solvent)

- CC1(C)OB(c2ccc(B3OC(C)(C)C(C)(C)O3)cc2)OC1(C)C: 0.17
- CC1(C)OB(c2cc(B3OC(C)(C)C(C)(C)O3)cc(B3OC(C)(C)C(C)(C)O3)c2)OC1(C)C: 0.20
- CC1(C)OB(c2cc(OCCCC(F)(F)C(F)(F)C(F)(F)C(F)(F)C(F)(F)C(F)(F)F)cc(B3OC(C)(C)C(C)(C)O3)c2)OC1(C)C [Example]: 5.0
